# GI50 per record follows
System: SK-OV-3
TEST_METHOD_NOTES: NCI tumour cell line growth inhibition, 48 h
The source made the active and inactive calls. Rule as the data show it: active = GI50 up to about 1.1 µM and inactive = higher.

Consider the worked cases shown below.
CC(C)(C)c1cc([N+](=O)[O-])cc([N+](=O)[O-])c1O    > 10 µM (inactive)
NC1=CN(CCCO)C2=N/C(=C\c3ccccc3)C(=O)N12    > 100 µM (inactive)
COc1cc2nc(-c3cccs3)nc(N3CCN(c4ccccc4)CC3)c2cc1OC    > 100 µM (inactive)
CC(=O)N1CC(=O)NC1=S    > 100 µM (inactive)
O=C1c2ccccc2C(=O)c2c(NCC3CO3)ccc(NCC3CO3)c21 (stereo unspecified)    10.4 µM (inactive)

-- ask Look up GI50 for this compound: `CCOP(=O)(OCC)/C(C#N)=C/c1ccnc2ccccc12`
-- reply 36.2 µM (inactive)

-- ask Look up GI50 for this compound: `CC(C)(C)OC(=O)Cn1ncn(NC(=O)Cc2ccccc2)c1=S`
-- reply > 10 µM (inactive)

-- ask Look up GI50 for this compound: `Cc1cc([N+](=O)[O-])ccc1Sc1c2ccccc2nc2ccccc12`
-- reply 31.3 µM (inactive)

-- ask Look up GI50 for this compound: CCOC(=O)C1=C(C)C2C3C(=O)NC(=O)C3C1(C)C1C(=O)NC(=O)C21 (stereo unspecified)
-- reply > 100 µM (inactive)

-- ask Look up GI50 for this compound: `COc1cc(C(=O)Nc2c3ccccc3nc3ccccc23)cc(OC)c1OC`
-- reply > 100 µM (inactive)

-- ask Look up GI50 for this compound: `Cc1cccc(NC(=O)c2c(N)[n+]([O-])c3ccccc3[n+]2[O-])c1`
-- reply 21.1 µM (inactive)

* * *

Test system: OVCAR-8
TEST_METHOD_NOTES: NCI tumour cell line growth inhibition, 48 h
Where a name gives a salt, the structure may show the parent alone. Calls of active or inactive are those of the source. No stated cut-off is given here; in the data, active = GI50 up to about 1.1 µM and inactive = higher.
# GI50 per record follows

O=C(O)Cc1cccc2c(=O)c3ccccc3oc12    > 100 µM (inactive)
CCc1cn(C2CC(CO)C(CO)S2)c(=O)[nH]c1=O (stereo unspecified)    > 100 µM (inactive)
CCOC(=O)C1(C)CCC(C(C(=O)O)C(=O)O)CC1=O (stereo unspecified)    > 100 µM (inactive)

-- ask Look up GI50 for this compound: `CC(=O)NC1=C(NCc2ccc(Cl)cc2)C(=O)c2ccccc2C1=O`
-- reply 7.45 µM (inactive)

-- ask Look up GI50 for this compound: `Cc1ccc(S(=O)(=O)OI(O)CC(F)(F)F)cc1`
-- reply > 100 µM (inactive)

-- ask Look up GI50 for this compound: OC(CNc1ccccn1)c1ccccc1 (stereo unspecified) [PHENYRAMIDOL HYDROCHLORIDE]
-- reply > 100 µM (inactive)

-- ask Look up GI50 for this compound: CC(=O)OCC1OC(N2C(C)=C(C(C)=O)C(c3ccco3)C(C#N)=C2S)C(OC(C)=O)C(OC(C)=O)C1OC(C)=O (stereo unspecified)
-- reply > 100 µM (inactive)

-- ask Look up GI50 for this compound: `O=C(Cn1ccnc1[N+](=O)[O-])c1ccccc1`
-- reply > 100 µM (inactive)

* * *

# GI50 per record follows
Test system: 786-0
TEST_METHOD_NOTES: NCI tumour cell line growth inhibition, 48 h
The source made the active and inactive calls. Cut-off read from the data, not from the text of the source: active = GI50 up to about 1.1 µM and inactive = higher.

CN(C)c1ccc(/C=c2\sc3nnc(Cc4ccccc4)n3c2=O)cc1    > 10 µM (inactive)

-- ask Look up GI50 for this molecule: `Nc1c2c(nc3ccccc13)CCCc1ccccc1-2`
-- reply 11.3 µM (inactive)

-- ask Look up GI50 for this molecule: `COc1ccc2c(c1)CC[C@@H]1[C@@H]2CC[C@]2(C)C(=O)/C(=C/c3ccc(C#N)cc3)C[C@@H]12`
-- reply > 100 µM (inactive)

-- ask Look up GI50 for this molecule: C/C(=N\N)C(CN(C)C)C(c1ccccc1)c1c(O)c2ccccc2oc1=O (stereo unspecified)
-- reply > 100 µM (inactive)

-- ask Look up GI50 for this molecule: `CC(C)=Nn1cnc2c1=NC(C)(C)NC=2C(N)=O`
-- reply > 10 µM (inactive)

-- ask Look up GI50 for this molecule: CC1=C(/C=C/C(C)=C/C=C/C(C)=C/C(=O)OCC2OC(n3cc(F)c(=O)[nH]c3=O)CC2OC(=O)/C=C(C)/C=C/C=C(C)/C=C/C2=C(C)CCCC2(C)C)C(C)(C)CCC1 (stereo unspecified)
-- reply 1.15 µM (inactive)

-- ask Look up GI50 for this molecule: CCC1OC2C(CC=C(C)C)=C3OC(C)(O)C(C)(CC)C(O)C3=C3OC(=O)C=C1C32 (stereo unspecified)
-- reply 37.2 µM (inactive)

-- ask Look up GI50 for this molecule: Cc1cc(=O)[nH]c2cc(NC(=O)C(C)NC(=O)C(C)NC(=O)C(C)NC(=O)OC(C)(C)C)ccc12 (stereo unspecified)
-- reply > 15 µM (inactive)

-- ask Look up GI50 for this molecule: C[C@@]12C=CC3C/C(=N\C(N)=S)C=C(CCCC4OCCO4)[C@]3(CC1)C2 (stereo partly specified)
-- reply 19.3 µM (inactive)

-- ask Look up GI50 for this molecule: COc1ccc2c(c1)CC1c3c(ccc(OC)c3O)CC2N1C (stereo unspecified)
-- reply 29.1 µM (inactive)

-- ask Look up GI50 for this molecule: `COC(=O)CC[N+]1([O-])CC1`
-- reply > 100 µM (inactive)

* * *

System: MDA-N
TEST_METHOD_NOTES: NCI tumour cell line growth inhibition, 48 h
Activity calls are given as the source filed them. Rule as the data show it: active = GI50 up to about 1.1 µM and inactive = higher.
Respond using exactly one of the listed classes: active, inactive

Worked set:
CC(=O)Nc1ccc(C(=O)NN2C(=O)CSC2c2ccc(O)cc2)cc1 (stereo not drawn)    inactive
CCCCC(=O)Nc1ccc2cc(C(=O)OC)c(Cl)nc2n1    inactive
Nn1c(S)nnc1CCCCCCCCc1nnc(S)n1N    inactive

Next compound, please.
-- ask Fill in: this test's call for `CN1CCN(c2ccc(-n3cc(C(=O)O)c(=O)c4cc(F)c(N5CCN(C)CC5)cc43)nc2)CC1` is ___
-- reply inactive

* * *

System: HCC 2998
TEST_METHOD_NOTES: NCI tumour cell line growth inhibition, 48 h
The source made the active and inactive calls. Cut-off read from the data, not from the text of the source: active = GI50 up to about 1.1 µM and inactive = higher.
Respond using exactly one of the listed classes: T (active), F (inactive)

O=C1C=CC(=O)C(CNc2ccc(C(=O)OCc3ccccc3)cc2)=C1    F
COc1c(C)c2c(c3c1c(=O)c1ccccc1n3C)C=CC(C)(C)O2    F
N[C@H](CCC(=O)NCP(=O)(O)O)C(=O)O    F
O=[N+]([O-])c1ccc(/C(=N/c2ccccc2)SS/C(=N\c2ccccc2)c2ccc([N+](=O)[O-])o2)o1    F
N#Cc1c(-c2ccc(Cl)cc2)c(C#N)c(=O)n(NS(=O)(=O)c2ccccc2)c1-c1ccccc1    F
O=c1[nH]nc(-c2cccc(Br)c2)[nH]1    F
CC(=O)Nc1cc2cc(N)ccc2oc1=O    F
N#Cc1c2nc3ccccc3nc2n2ccc3ccccc3c12    F
COC(=O)Nc1cc(OCCCOC(C)=O)c2[nH]c(C(=O)OC)cc2c1C[C@H](O)CO    F
COC1=C(C(=O)OC(C)(C)C)C23CCCCC2(C(C(=O)OC(C)(C)C)=C(OC)C3C(=O)OC(C)(C)C)C1C(=O)OC(C)(C)C (stereo unspecified)    F

-- ask Fill in: this test's call for COC(=O)[C@]1(C)CCC[C@@]2(C)C1CC[C@@]13C=C(C(C)C)[C@@H](CC1=O)CC23 (stereo partly specified) is ___
-- reply F

-- ask Fill in: this test's call for CC(C)=CC1C(C(=O)O)C1(C)C (stereo unspecified) [CHRYSANTHEMIC ACID] is ___
-- reply F

-- ask Fill in: this test's call for `FC(F)(F)c1ccc2nc(Sc3ccc4ccccc4c3)cnc2c1` is ___
-- reply F

-- ask Fill in: this test's call for `CS[C@]12C(=O)C[C@@]3(C)[C@@H](CC[C@]3(O)C(=O)CO)[C@@H]1CCC1=CC(=O)CC[C@@]12C` is ___
-- reply F

-- ask Fill in: this test's call for `NNC(=S)N/N=C/C(=C/Nc1ccccc1)[N+](=O)[O-]` is ___
-- reply F

-- ask Fill in: this test's call for N=C1OC(c2c[nH]c3ccc(OCc4ccccc4)cc23)C(O)=C1O (stereo unspecified) is ___
-- reply T

-- ask Fill in: this test's call for `NC1=CN(CCCO)C2=N/C(=C\c3ccccc3)C(=O)N12` is ___
-- reply F

-- ask Fill in: this test's call for `CCOc1ccc2nc(NC(=O)c3c/c(=N\NC(=O)C[N+](C)(C)C)c4ccc(O)cc4o3)sc2c1` is ___
-- reply F

-- ask Fill in: this test's call for `Cc1ccc(S(=O)(=O)N/N=C/C(Br)=C(/Br)C(=O)O)cc1` is ___
-- reply F

-- ask Fill in: this test's call for `Nn1c(S)nnc1CCCCCCCCc1nnc(S)n1N` is ___
-- reply F

-- ask Fill in: this test's call for `c1ccc(C(c2ccccc2)c2cccnc2)cc1` is ___
-- reply F
